- TARGET DESC: YTH domain of YTHDF1 (Homo sapiens)
- Sequence (Q9BYJ9 361-559): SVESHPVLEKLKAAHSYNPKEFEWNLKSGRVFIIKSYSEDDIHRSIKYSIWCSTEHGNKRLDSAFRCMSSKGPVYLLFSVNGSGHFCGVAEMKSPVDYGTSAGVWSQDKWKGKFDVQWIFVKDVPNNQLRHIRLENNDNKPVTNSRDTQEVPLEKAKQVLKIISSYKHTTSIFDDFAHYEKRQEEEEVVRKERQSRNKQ
READOUT: IC50 (µM)
Provide the reading as a plain figure in µM.

Problem: What is its IC50 for YTH domain of YTHDF1 (Homo sapiens)? Entry: CCCCCNC(=N)N/N=C/c1c[nH]c2ccc(OC)cc12
Result: 13.8
